Please provide measured activity at 2 µg/mL for the entries that follow.
System: P. falciparum 3D7 parasites
Experiment: P. falciparum growth inhibition assay, 2-cycle (120 h treatment), delayed-death screen and dose-response
Type: cell-based, Plasmodium falciparum
Conditions: Plasmodium falciparum, 3D7; P. falciparum, 120 h, screen at 2 μg/mL, replicate 1; read-out: Pf_120h_%Growth_Rep1

[[record]]
entry_smiles = "COC[C@H]1OC(=O)c2coc3c2[C@@]1(C)C1=C(C3=O)[C@@H]2CCC(=O)[C@@]2(C)C[C@H]1OC(C)=O"
value = "109%"

[[record]]
entry_smiles = "O=c1[nH]c2ccccc2c(-c2ccccc2)c1O"
value = "106%"

[[record]]
entry_smiles = "CCCCCCCCCC(=O)N[C@@H](Cc1c[nH]c2ccccc12)C(=O)N[C@H](CC(N)=O)C(=O)N[C@@H](CC(=O)O)C(=O)N[C@@H]1C(=O)NCC(=O)N[C@@H](CCCN)C(=O)N[C@@H](CC(=O)O)C(=O)N[C@H](C)C(=O)N[C@@H](CC(=O)O)C(=O)NCC(=O)N[C@H](CO)C(=O)N[C@@H]([C@H](C)CC(=O)O)C(=O)N[C@@H](CC(=O)c2ccccc2N)C(=O)O[C@@H]1C"
value = "90.7%"

[[record]]
entry_smiles = "CO[C@H]1C[C@@H]2CC[C@@H](C)[C@@](O)(O2)C(=O)C(=O)N2CCCC[C@H]2C(=O)O[C@H]([C@H](C)C[C@@H]2CC[C@H](n3cnnn3)[C@H](OC)C2)CC(=O)[C@H](C)/C=C(\\C)[C@@H](O)[C@@H](OC)C(=O)[C@H](C)C[C@H](C)/C=C/C=C/C=C/1C"
value = "97.5%"


Shifting focus to the compound that follows.
Query: Entry `C/C=C/C1=CC(=O)[C@@H](O)[C@@H]1O` : reported activity at 2 µg/mL = ?
Result: 82%

###

Test system: P. falciparum 3D7 parasites
Experiment: P. falciparum growth inhibition assay, 2-cycle (120 h treatment), delayed-death screen and dose-response
Type: cell-based, Plasmodium falciparum
REPORTED METRIC: 3) Fold change (72 h/120 h)

[[record]]
compound = "CC[C@H](C)[C@H]1O[C@]2(C=C[C@@H]1C)C[C@@H]1C[C@@H](C/C=C(\\C)[C@@H](O[C@H]3C[C@H](OC)[C@@H](O[C@H]4C[C@H](OC)[C@H](NC(C)=O)[C@H](C)O4)[C@H](C)O3)[C@@H](C)/C=C/C=C3\\CO[C@@H]4[C@H](O)C(C)=C[C@@H](C(=O)O1)[C@]34O)O2 [Eprinomectin B1a, reference compound]"
value = 2.2


Query: What value of 3) Fold change (72 h/120 h) has been recorded for this entry: C[C@H]1c2cccc(O)c2C(=O)C2=C(O)[C@]3(O)C(=O)C(C(N)=O)=C(O)[C@@H](N(C)C)[C@@H]3[C@@H](O)[C@@H]21 [Doxycycline, reference compound]
Result: 6.3

###

System: P. falciparum 3D7 parasites
Assay: P. falciparum growth inhibition assay, 2-cycle (120 h treatment), delayed-death screen and dose-response
Assay type: cell-based, Plasmodium falciparum
Details: library screen at 2 μg/mL, 120 h, % growth, replicate 2
Provide the reported Pf_120h_%Growth_Rep2 of each item.
Give bare numbers, in %.

Worked examples follow.
[[record]]
molecule = "COCCC[C@H]1O[C@@](O)([C@H](C)C2CC(OC)C(O)/C=C(C)/C=C(C)/C=C(/C)C(O[C@H]3O[C@H](C)[C@@H](OC)[C@H](O)[C@H]3O)C(C)/C=C(CO)/C=C(OC)\\C=C(/C)C(=O)O2)[C@H](OC)[C@@H](O)[C@]1(C)O[C@H]1C[C@H](O)[C@H](O[C@H]2C[C@@](C)(O)[C@H](O)[C@@H](C)O2)[C@@H](C)O1 (stereo partly drawn)"
value = 94.98

[[record]]
molecule = "CCOC(=O)c1c(C)cc(O)cc1O [Ethyl orsellinate]"
value = 106.42


# context switch: different molecule, same Pf_120h_%Growth_Rep2
Query: Which Pf_120h_%Growth_Rep2 is reported with P. falciparum 3D7 parasites for this entry: `COC1=C(O)c2c(O)cc(C)c3c(O)cc(O)c(c23)C1=O` ?
Result: 107.04
